Biological target: T1, human LIV-1 (human, UniProt Q13433 29-755)
T1 sequence (looked up): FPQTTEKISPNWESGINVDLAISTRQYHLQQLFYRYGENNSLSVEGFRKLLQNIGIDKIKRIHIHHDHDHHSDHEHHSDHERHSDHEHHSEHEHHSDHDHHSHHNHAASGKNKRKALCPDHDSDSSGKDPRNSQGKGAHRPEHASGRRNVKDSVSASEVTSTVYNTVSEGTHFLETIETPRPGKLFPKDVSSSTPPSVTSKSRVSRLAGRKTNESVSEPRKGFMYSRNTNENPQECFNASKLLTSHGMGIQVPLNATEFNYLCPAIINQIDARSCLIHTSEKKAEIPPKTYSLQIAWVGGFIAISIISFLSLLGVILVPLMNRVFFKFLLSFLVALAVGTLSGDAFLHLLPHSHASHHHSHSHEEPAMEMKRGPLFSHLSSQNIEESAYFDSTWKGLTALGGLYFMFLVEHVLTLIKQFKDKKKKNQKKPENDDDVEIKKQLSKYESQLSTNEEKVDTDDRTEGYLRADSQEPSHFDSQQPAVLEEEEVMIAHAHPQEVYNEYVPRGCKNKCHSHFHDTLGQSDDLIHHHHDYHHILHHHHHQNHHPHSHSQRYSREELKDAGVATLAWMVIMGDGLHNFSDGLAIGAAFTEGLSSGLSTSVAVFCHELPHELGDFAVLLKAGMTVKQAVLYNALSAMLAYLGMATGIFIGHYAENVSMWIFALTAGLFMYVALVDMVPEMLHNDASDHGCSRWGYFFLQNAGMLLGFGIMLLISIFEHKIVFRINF
Assay: cell-based or functional assay
quantity-measured: Min cell viability %, BT20/H_LIV-1 High
Give your result as the value with the unit written after it.

Below are 3 binders. Give each one its Min cell viability %, BT20/H_LIV-1 High.
1. 124H4D11.p2.z4-MMAE (antibody, V domains shown, MMAE drug moiety conjugated; site and chain not stated, Antibody-drug conjugate of 124H4D11.p2.z4; human gamma 1/kappa) VH: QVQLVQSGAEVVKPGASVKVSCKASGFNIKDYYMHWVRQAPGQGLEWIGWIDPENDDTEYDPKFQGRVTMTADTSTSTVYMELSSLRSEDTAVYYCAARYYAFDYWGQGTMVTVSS VL: DVLMTQSPLSLPVTLGQPASISCRSSQSIVHSNANTYLEWYLQRPGQSPRLLIYKVSNRFSGVPDRFSGSGSGTDFTLKISRVEAEDVGVYYCFQGSQVPPTFGQGTKLEIK
2. 5D6B10.z7-MMAE (antibody, V domains shown, MMAE drug moiety conjugated; site and chain not stated, Antibody-drug conjugate of 5D6B10.z7; human gamma 1/kappa) VH: QVQLVQSGGGVVQPGRSLRLSCTVSGFSLTTYGIHWVRQSPGKGLEWLGVIWTGGTTDYNAAFISRLTISKDNSKSTVYFQMNSLQAEDTAIYYCARGPSSYWGQGTLVTVSS VL: EIVMTQSPATLSVSPGERATLSCKASQNVDTNVVWYQQKPGQSPRALIYSASYRYSGVPARFSGSGSGTEFTLTISSLQSEDFAVYFCQQYNNYPWTFGQGTKVEIK
3. 5D6B10.z7-Eribulin (antibody, V domains shown, Eribulin drug moiety conjugated; site and chain not stated, Antibody-drug conjugate of 5D6B10.z7; human gamma 1/kappa) VH: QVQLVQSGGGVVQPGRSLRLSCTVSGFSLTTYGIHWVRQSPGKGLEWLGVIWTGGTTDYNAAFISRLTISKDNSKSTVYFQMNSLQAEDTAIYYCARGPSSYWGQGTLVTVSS VL: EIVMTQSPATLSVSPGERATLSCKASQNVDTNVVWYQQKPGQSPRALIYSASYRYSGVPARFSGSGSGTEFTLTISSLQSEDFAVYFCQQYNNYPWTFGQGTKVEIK

1. 18.6%
2. 28.4%
3. 31.5%
